Sourced from ChEMBL document CHEMBL2021833

Target desc: Calcitonin gene-related peptide type 1 receptor (Homo sapiens, UniProt O60894+Q16602)
Sequence (Q16602 whole entry, one chain of several): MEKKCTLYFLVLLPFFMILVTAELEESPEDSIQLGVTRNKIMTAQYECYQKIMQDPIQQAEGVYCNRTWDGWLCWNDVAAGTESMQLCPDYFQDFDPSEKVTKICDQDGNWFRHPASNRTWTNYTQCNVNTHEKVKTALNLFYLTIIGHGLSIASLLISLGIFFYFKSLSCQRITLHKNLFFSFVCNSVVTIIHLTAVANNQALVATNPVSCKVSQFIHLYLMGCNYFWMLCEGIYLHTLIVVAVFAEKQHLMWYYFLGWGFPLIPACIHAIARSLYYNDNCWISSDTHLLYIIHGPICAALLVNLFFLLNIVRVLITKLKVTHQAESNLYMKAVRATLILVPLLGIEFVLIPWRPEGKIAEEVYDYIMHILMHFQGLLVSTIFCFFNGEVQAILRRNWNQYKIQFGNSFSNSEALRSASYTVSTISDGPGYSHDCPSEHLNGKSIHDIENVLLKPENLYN
Method: Displacement of [I125]CGRP from CGRP receptor in human SK-N-MC cell membrane after 2 hrs by gamma or scintillation counting
Format: cell membranes
Metric: Ki (nM)
# output: bare number, implied unit nM

compound Cc1cc(C[C@@H](NC(=O)N2CCC(N3Cc4cccc(F)c4NC3=O)CC2)C(=O)N2CCC(N3CCCCC3)CC2)cc2cn[nH]c12 , Ki observed: 0.013

###

Method: Permeability across human Caco2 cells
Assay type: ADME, cell-based
Details: Caco-2, read-out: permeability
Metric: Papp (×10⁻⁶ cm/s)
# output: bare number, implied unit ×10⁻⁶ cm/s

Answered cases to consult:
molecule Cc1cc(CC(CC(=O)N2CCC(c3cc4ccccc4[nH]c3=O)CC2)c2ccccn2)cc2cn[nH]c12 (stereo not given) , Papp observed: 3.4

molecule Cc1cc(CC(OC(=O)N2CCC(c3cc4ccccc4[nH]c3=O)CC2)c2cc(C(=O)N(C)C)cc(Cl)n2)cc2cn[nH]c12 (stereo not given) , Papp observed: 5.2

molecule Cc1cc(CC(OC(=O)N2CCC(n3c(=O)[nH]c4ncccc43)CC2)c2cc(C(=O)N(C)C)cc(Cl)n2)cc2cn[nH]c12 (stereo not given) , Papp observed: 1.6

Proceeding to the next molecule to report its Papp.
molecule Cc1cc(CC(OC(=O)N2CCC(c3cc4ccccc4[nH]c3=O)CC2)c2cc(CN3CCCCCC3)ccn2)cc2cn[nH]c12 (stereo not given) , Papp observed: 2.8
